assay: Inhibition of HCV NS5B J4 delta 21 polymerase; parameters: species or system Hepacivirus hominis
pIC50: recorded values
pIC50 here is simply -log10 of the concentration when that concentration is written in mol/L.

CC(C)C[C@@]1(C(=O)O)C[C@H](C(N)=O)[C@H](c2nccs2)N1C(=O)c1ccc(C(C)(C)C)cc1 (stereo in doubt; 32) ... 7.10

Quick note, pIC50 for CC(C)C[C@@]1(C(=O)O)C[C@H](C(=O)O)[C@H](c2nccs2)N1C(=O)c1ccc(C(C)(C)C)cc1 (stereo in doubt; (+)28) landed at 7.52

Quick note, pIC50 for CC(C)C[C@@]1(C(=O)O)C[C@H](C(=O)O)[C@H](c2cccs2)N1C(=O)c1ccc(C(C)(C)C)cc1 landed at 6.12
